# assay system: Nucleic Acid
# method summary: Tested for binding affinity against RNA construct A
# Format: nucleic-acid assay
measured parameter: pKd
// scale note: pKd = -log10(conc_M); give the bare number

Solved entries:
Query string: I am curious: what pKd value has been reported for NC[C@@H]1O[C@H](O[C@H]2[C@@H](O)[C@H](O[C@@H]3[C@@H](O)[C@H](N)C[C@H](N)[C@H]3O[C@H]3O[C@H](CO)[C@@H](O)[C@H](O)[C@H]3N)O[C@@H]2CO)[C@H](N)[C@@H](O)[C@@H]1O [PAROMOMYCIN] ?
Result string: 5.79

Query string: I am curious: what pKd value has been reported for NC[C@H]1O[C@H](O[C@H]2[C@H](O)[C@@H](O[C@H]3O[C@H](CO)[C@@H](O)[C@H](N)[C@H]3O)[C@H](N)C[C@@H]2N)[C@H](N)[C@@H](O)[C@@H]1O [BEKANAMYCIN] ?
Result string: 5.53

Query string: I am curious: what pKd value has been reported for NC[C@H]1O[C@H](O[C@H]2[C@H](O)[C@@H](O[C@H]3O[C@H](CO)[C@@H](O)[C@H](N)[C@H]3O)[C@H](N)C[C@@H]2N)[C@H](N)C[C@@H]1O [TOBRAMYCIN] ?
Result string: 5.68

Attention now turns to another entry.
Query string: I am curious: what pKd value has been reported for NC[C@@H]1O[C@H](O[C@H]2[C@@H](O)[C@H](O[C@@H]3[C@@H](O)[C@H](N)C[C@H](N)[C@H]3O[C@H]3O[C@H](CN)[C@@H](O)[C@H](O)[C@H]3N)O[C@@H]2CO)[C@H](N)[C@@H](O)[C@@H]1O [FRAMYCETIN] ?
Result string: 6.39

----------
# assay system: Nucleic Acid
# method summary: Tested for binding affinity against RNA construct E
# Assay type: nucleic-acid assay
measured parameter: pKd
// scale note: pKd = -log10(conc_M); give the bare number

Solved entries:
Query string: I am curious: what pKd value has been reported for NC[C@H]1O[C@H](O[C@H]2[C@H](O)[C@@H](O[C@H]3O[C@H](CO)[C@@H](O)[C@H](N)[C@H]3O)[C@H](N)C[C@@H]2N)[C@H](N)C[C@@H]1O [TOBRAMYCIN] ?
Result string: 6.17

Query string: I am curious: what pKd value has been reported for NC[C@H]1O[C@H](O[C@H]2[C@H](O)[C@@H](O[C@H]3O[C@H](CO)[C@@H](O)[C@H](N)[C@H]3O)[C@H](N)C[C@@H]2N)[C@H](N)[C@@H](O)[C@@H]1O [BEKANAMYCIN] ?
Result string: 6.04

Query string: I am curious: what pKd value has been reported for NC[C@@H]1O[C@H](O[C@H]2[C@@H](O)[C@H](O[C@@H]3[C@@H](O)[C@H](N)C[C@H](N)[C@H]3O[C@H]3O[C@H](CN)[C@@H](O)[C@H](O)[C@H]3N)O[C@@H]2CO)[C@H](N)[C@@H](O)[C@@H]1O [FRAMYCETIN] ?
Result string: 7.04

Attention now turns to another entry.
Query string: I am curious: what pKd value has been reported for NC[C@@H]1O[C@H](O[C@H]2[C@@H](O)[C@H](O[C@@H]3[C@@H](O)[C@H](N)C[C@H](N)[C@H]3O[C@H]3O[C@H](CO)[C@@H](O)[C@H](O)[C@H]3N)O[C@@H]2CO)[C@H](N)[C@@H](O)[C@@H]1O [PAROMOMYCIN] ?
Result string: 6.40
